Entries and their collision cross section values follow.
Test Description: collision cross section of modified peptide (TIMS, N2, iRT-aligned); higher = larger / more extended gas-phase ion
Test Context: charge state: 3; modification: Methyl (K)
Result Type: collision cross section (Å²)

chain_sequence="IQQELQTAKK [_IQQELQTAK(Methyl (K))K_]" measure_unit=Å² recorded_result=430.18
chain_sequence="GTITVSAQELKDNR [_GTITVSAQELK(Methyl (K))DNR_]" measure_unit=Å² recorded_result=485.75
chain_sequence="VSPASSVDSNIPSSQGYKK [_VSPASSVDSNIPSSQGYK(Methyl (K))K_]" measure_unit=Å² recorded_result=544.11
chain_sequence="ITASLCDLKSR [_ITASLCDLK(Methyl (K))SR_]" measure_unit=Å² recorded_result=456.95
chain_sequence="YEEIVKEVSTYIK [_YEEIVK(Methyl (K))EVSTYIK_]" measure_unit=Å² recorded_result=492.07
chain_sequence="SLGEPAAGEGSAKR [_SLGEPAAGEGSAK(Methyl (K))R_]" measure_unit=Å² recorded_result=480.43
chain_sequence="LGNDFHTNKR [_LGNDFHTNK(Methyl (K))R_]" measure_unit=Å² recorded_result=430.67
chain_sequence="ASNAAVKLAESK [_ASNAAVK(Methyl (K))LAESK_]" measure_unit=Å² recorded_result=450.44
chain_sequence="SEASSEFAKK [_SEASSEFAK(Methyl (K))K_]" measure_unit=Å² recorded_result=426.48
chain_sequence="DKALPLEAEVAPVK [_DK(Methyl (K))ALPLEAEVAPVK_]" measure_unit=Å² recorded_result=507.57
chain_sequence="INNFSADIKDSK [_INNFSADIK(Methyl (K))DSK_]" measure_unit=Å² recorded_result=451.47
chain_sequence="DLGKFQVATDALK [_DLGK(Methyl (K))FQVATDALK_]" measure_unit=Å² recorded_result=491.01
chain_sequence="LDHLAEKFR [_LDHLAEK(Methyl (K))FR_]" measure_unit=Å² recorded_result=450.7
chain_sequence="SGNLTEDDKHNNAK [_SGNLTEDDK(Methyl (K))HNNAK_]" measure_unit=Å² recorded_result=487.35
chain_sequence="ITLSKHQNVQLPR [_ITLSK(Methyl (K))HQNVQLPR_]" measure_unit=Å² recorded_result=510.25
chain_sequence="ALLQAKASGK [_ALLQAK(Methyl (K))ASGK_]" measure_unit=Å² recorded_result=423.28
chain_sequence="SDSGKPYYYNSQTK [_SDSGK(Methyl (K))PYYYNSQTK_]" measure_unit=Å² recorded_result=475.71
chain_sequence="DLSTVEALQNLKNLK [_DLSTVEALQNLK(Methyl (K))NLK_]" measure_unit=Å² recorded_result=545.72

====

Test Description: collision cross section of modified peptide (TIMS, N2, iRT-aligned); higher = larger / more extended gas-phase ion
Test Context: charge state: 2; modification: Formyl
Entries and their collision cross section values follow.
Result Type: collision cross section (Å²)

chain_sequence="GFALVGVGSEASSKK [_GFALVGVGSEASSK(Formyl)K_]" measure_unit=Å² recorded_result=409.61
chain_sequence="SLFFGGKGAPLQR [_SLFFGGK(Formyl)GAPLQR_]" measure_unit=Å² recorded_result=399.67
chain_sequence="FVDSKVGEFSGANK [_FVDSK(Formyl)VGEFSGANK_]" measure_unit=Å² recorded_result=406.35
chain_sequence="VNIGQGSHPQKVK [_VNIGQGSHPQK(Formyl)VK_]" measure_unit=Å² recorded_result=425.2
chain_sequence="STGLELETPSLVPVKK [_STGLELETPSLVPVK(Formyl)K_]" measure_unit=Å² recorded_result=431.64
chain_sequence="IISSIEQKEENK [_IISSIEQK(Formyl)EENK_]" measure_unit=Å² recorded_result=398.84
chain_sequence="LQLEIDQKK [_LQLEIDQK(Formyl)K_]" measure_unit=Å² recorded_result=362.42
chain_sequence="VPTTEKPTVTVNFR [_VPTTEK(Formyl)PTVTVNFR_]" measure_unit=Å² recorded_result=425.05
chain_sequence="VSPASSVDSNIPSSQGYKK [_VSPASSVDSNIPSSQGYK(Formyl)K_]" measure_unit=Å² recorded_result=457.96

====

Test Description: collision cross section of modified peptide (TIMS, N2, iRT-aligned); higher = larger / more extended gas-phase ion
Test Context: charge state: 2; modification: Malonyl
Output Criterion met for collision cross section not less than 400 Å²; output Criterion not met otherwise.

chain_sequence="KFGVLSDNFK [_K(Malonyl)FGVLSDNFK_]" answer_label="Criterion not met"
chain_sequence="SPDEAYAIAKK [_SPDEAYAIAK(Malonyl)K_]" answer_label="Criterion not met"
chain_sequence="ANLEKAQAELVGTADEATR [_ANLEK(Malonyl)AQAELVGTADEATR_]" answer_label="Criterion met"
chain_sequence="IPQEKCILQTDVK [_IPQEK(Malonyl)CILQTDVK_]" answer_label="Criterion met"
chain_sequence="DKALPLEAEVAPVK [_DK(Malonyl)ALPLEAEVAPVK_]" answer_label="Criterion met"
chain_sequence="VLDSGAPIKIPVGPETLGR [_VLDSGAPIK(Malonyl)IPVGPETLGR_]" answer_label="Criterion met"
chain_sequence="DLSTVEALQNLKNLK [_DLSTVEALQNLK(Malonyl)NLK_]" answer_label="Criterion met"
chain_sequence="VGLQVVAVKAPGFGDNR [_VGLQVVAVK(Malonyl)APGFGDNR_]" answer_label="Criterion met"
chain_sequence="ITESVAETAQTIKK [_ITESVAETAQTIK(Malonyl)K_]" answer_label="Criterion met"
chain_sequence="SEASSEFAKK [_SEASSEFAK(Malonyl)K_]" answer_label="Criterion not met"
chain_sequence="LLIVSTTPYSEKDTK [_LLIVSTTPYSEK(Malonyl)DTK_]" answer_label="Criterion met"
chain_sequence="TQAYQDQKPGTSGLR [_TQAYQDQK(Malonyl)PGTSGLR_]" answer_label="Criterion met"
chain_sequence="GTITVSAQELKDNR [_GTITVSAQELK(Malonyl)DNR_]" answer_label="Criterion met"
chain_sequence="SDSGKPYYYNSQTK [_SDSGK(Malonyl)PYYYNSQTK_]" answer_label="Criterion met"
chain_sequence="IQTKAGEATVK [_IQTK(Malonyl)AGEATVK_]" answer_label="Criterion not met"
chain_sequence="VETTVTSLKTK [_VETTVTSLK(Malonyl)TK_]" answer_label="Criterion not met"
chain_sequence="AGQKLIDVNHYAK [_AGQK(Malonyl)LIDVNHYAK_]" answer_label="Criterion met"
chain_sequence="TPNLYIYSKK [_TPNLYIYSK(Malonyl)K_]" answer_label="Criterion not met"
chain_sequence="IQQELQTAKK [_IQQELQTAK(Malonyl)K_]" answer_label="Criterion not met"
chain_sequence="LQEKVESAQSEQK [_LQEK(Malonyl)VESAQSEQK_]" answer_label="Criterion met"
chain_sequence="SGFGKFER [_SGFGK(Malonyl)FER_]" answer_label="Criterion not met"
chain_sequence="IHVQSSSDSSDEPAEKR [_IHVQSSSDSSDEPAEK(Malonyl)R_]" answer_label="Criterion met"
chain_sequence="DASTLQSQKAEGTGDAK [_DASTLQSQK(Malonyl)AEGTGDAK_]" answer_label="Criterion met"
chain_sequence="PGGEGPQCEKTTDVK [_PGGEGPQCEK(Malonyl)TTDVK_]" answer_label="Criterion met"

====

Test Description: collision cross section of unmodified peptide (TIMS, N2, iRT-aligned); higher = larger / more extended gas-phase ion
Test Context: charge state: 3
Result Type: collision cross section (Å²)

chain_sequence=AAGQPYEQHAK result_type="collision cross section" recorded_result=423.62
chain_sequence=GLATFPSRGAK result_type="collision cross section" recorded_result=445.97
chain_sequence=DLYEPSHGAK result_type="collision cross section" recorded_result=429.53
chain_sequence=YGRGQLNYPLPDFSK result_type="collision cross section" recorded_result=510.01
chain_sequence=LGNDFHTNKR result_type="collision cross section" recorded_result=431.93
chain_sequence=THLAPYSDELR result_type="collision cross section" recorded_result=446.52
chain_sequence=LDHLAEKFR result_type="collision cross section" recorded_result=453.05
chain_sequence=DESFLGKLGGTLAR result_type="collision cross section" recorded_result=475.21
chain_sequence=ITGKNQVTATK result_type="collision cross section" recorded_result=448.51
chain_sequence=APPIDRSILPTAPR result_type="collision cross section" recorded_result=492.42
chain_sequence=DYQPGITFIVVQK result_type="collision cross section" recorded_result=485.74
chain_sequence=LSESHPDATEDLQR result_type="collision cross section" recorded_result=474.77
chain_sequence=DYSSGFGGKYGVQADR result_type="collision cross section" recorded_result=489.69
chain_sequence=FSYTSQHSDYGQR result_type="collision cross section" recorded_result=485.4
chain_sequence=YIEIYVQKVNPSR result_type="collision cross section" recorded_result=505.68
chain_sequence=TSYAQHQQVR result_type="collision cross section" recorded_result=444.63
chain_sequence=IINEPTAAAIAYGLDKK result_type="collision cross section" recorded_result=556.28
chain_sequence=LQLEIDQKK result_type="collision cross section" recorded_result=427.93
chain_sequence=DSSPTTNSKLSALQR result_type="collision cross section" recorded_result=485.64
chain_sequence=LEQVEKELLR result_type="collision cross section" recorded_result=455.22
chain_sequence=LAEEENKAK result_type="collision cross section" recorded_result=421.19
chain_sequence=SITHSTVGSKGEK result_type="collision cross section" recorded_result=464.75
chain_sequence=GRGTSQLAEGATAK result_type="collision cross section" recorded_result=463.88
chain_sequence=PLPVALQTRLAK result_type="collision cross section" recorded_result=471.01
chain_sequence=LEENHYNTYISK result_type="collision cross section" recorded_result=465.19
chain_sequence=PGPQPSAETTR result_type="collision cross section" recorded_result=415.85
chain_sequence=DAIHFYNKSLAEHR result_type="collision cross section" recorded_result=501.63
chain_sequence=RFSPPSSSLQPGK result_type="collision cross section" recorded_result=484.72
chain_sequence=SHLRHAIPSAER result_type="collision cross section" recorded_result=458.41
chain_sequence=TPNLYIYSKK result_type="collision cross section" recorded_result=430.18
chain_sequence=SAGSVESPSVSSTHR result_type="collision cross section" recorded_result=493.72
chain_sequence=DYSAPVNFISAGLKK result_type="collision cross section" recorded_result=512.68
chain_sequence=PRTPTAPAVNLAGAR result_type="collision cross section" recorded_result=484.37
chain_sequence=LGDVYVNDAFGTAHR result_type="collision cross section" recorded_result=501.14
chain_sequence=HHTLRQAPQPQSSLQR result_type="collision cross section" recorded_result=502.65
chain_sequence=GKLGVPGLPGYPGR result_type="collision cross section" recorded_result=480.85
chain_sequence=VQFAPEKPGPQPSAETTR result_type="collision cross section" recorded_result=507.38
chain_sequence=SGRGGNFGFGDSR result_type="collision cross section" recorded_result=452.15
chain_sequence=PSIHGGSGGRGVSVSSAR result_type="collision cross section" recorded_result=503.12
chain_sequence=GQKGEPGLPGHPGK result_type="collision cross section" recorded_result=470.96
chain_sequence=GAEKTEVAEPR result_type="collision cross section" recorded_result=445.67
chain_sequence=DFSLTSSSQTPGATK result_type="collision cross section" recorded_result=461.25
chain_sequence=TQAYQDQKPGTSGLR result_type="collision cross section" recorded_result=489.83
chain_sequence=HHAAYVNNLNVTEEK result_type="collision cross section" recorded_result=494.31
chain_sequence=AQPQDSRGGSK result_type="collision cross section" recorded_result=421.45
chain_sequence=GERGPPGPPGK result_type="collision cross section" recorded_result=437.43
chain_sequence=GEGGFGGRGGGR result_type="collision cross section" recorded_result=426.14
chain_sequence=ASAISIKLGSSK result_type="collision cross section" recorded_result=446.31
chain_sequence=AGRGFSLEELR result_type="collision cross section" recorded_result=459.45
chain_sequence=GGQGPPGPQGPIGYPGPR result_type="collision cross section" recorded_result=520.51
chain_sequence=GNDISSGTVLSDYVGSGPPKK result_type="collision cross section" recorded_result=543.89
chain_sequence=HFGPVPPSQGRGR result_type="collision cross section" recorded_result=493.79
